SYSTEM_TESTED: Cathepsin B (Bos taurus)
ASSAY_TEXT: Evaluated for second-order rate constants for the inactivation of mammalian lysosomal cathepsin B.
MEASURED_METRIC: ki/Ki (M⁻¹ s⁻¹)
Your answer is read as M⁻¹ s⁻¹, so omit the unit and give the number.

MOLECULE	ki/Ki (M⁻¹ s⁻¹)
CCOC(=O)[C@@H]1[C@@H](C(=O)OCC)N1C(=O)CNC(=O)CNC(=O)OCc1ccccc1	6.48
CCOC(=O)C1C(C(=O)OCc2ccccc2)N1C(=O)CNC(=O)[C@H](CC(C)C)NC(=O)OC(C)(C)C (stereo partly drawn)	4

Consider now this further molecule.
input: Reported ki/Ki for `CCOC(=O)[C@@H]1[C@@H](C(=O)OCC)N1C(=O)[C@H](C)NC(=O)OCc1ccccc1` : what is it?
output: 1.12
